# Assay Target: recombinant human TSLP (glycosylated long form) (human, UniProt Q969D9 29-159)
# Assay Overview: cell-based or functional assay
a-TSLP TARC bioassay (fold change to TSLP-0001) values, listed per item
Observed Property: a-TSLP TARC bioassay (fold change to TSLP-0001) (fold)

TSLP-2002 (antibody, human IgG1, lambda, V domains shown) VH: EMQLVESGGGLVQPGGSLRLSCAASGFTFRTYGMHWVRQAPGKGLEWVAVIWYDGSNKHYADSVKGRFTISRDNAKNSLYLQMNSLRAEDTAVYYCARAPQWYLVHEAFDIWGQGTMVTVSS VL: SYVLTQPPSVSVAPGQTARITCGGNNLGSKSVHWYQQKPGQAPVLVVYDDKDRPSWIPERFSGSNSGNTATLTISRGEAGDEADYYCQVWDSKSDHVVFGGGTKLTVLG: 5.1
TSLP-0820 (antibody, human IgG1, lambda, V domains shown) VH: EMQLVESGGGLVQPGGSLRLSCAASGFTFRTYGMHWVRQAPGKGLEWVAVIWYDGSNKHYADSVKGRFTISRDNAKNSLYLQMNSLRAEDTAVYYCARAPQWYLVHEAFDIWGQGTMVTVSS VL: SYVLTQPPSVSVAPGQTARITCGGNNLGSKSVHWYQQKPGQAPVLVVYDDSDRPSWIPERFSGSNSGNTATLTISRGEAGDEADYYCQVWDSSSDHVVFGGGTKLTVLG: 2.5
TSLP-2004 (antibody, human IgG1, lambda, V domains shown) VH: EMQLVESGGGLVQPGGSLRLSCAASGFTFRTYGMHWVRQAPGKGLEWVAVIWYDGSNKHYADSVKGRFTISRDNAKNSLYLQMNSLRAEDTAVYYCARAPQWYLVHEAFDIWGQGTMVTVSS VL: SYVLTQPPSVSVAPGQTARITCGGNNLGSKSVHWYQQKPGQAPVLVVYDDSDRPSWIPERFSGSNSGNTATLTISRGEAGDEADYYCQVWDKSSDHVVFGGGTKLTVLG: 6.4
